system: K. pneumoniae MP-648; experiment: Broth dilution MIC determination (CLSI), K. pneumoniae MP-648; format: cell-based; conditions: Klebsiella pneumoniae, MP648; strain MP-648, broth dilution
measurement name: MIC

CO[C@]1(C)C[C@@H](C)CN(C)[C@H](C2CN(Cc3cnccn3)C2)COC(=O)C(C)(C)C(=O)[C@H](C)[C@H]1O[C@@H]1O[C@H](C)C[C@H](N(C)C)[C@H]1O [Compound 55] | > 32 µg/mL
CO[C@]1(C)C[C@@H](C)CN(C)[C@H](C2CN(CC3CCOC3)C2)COC(=O)C(C)(C)C(=O)[C@H](C)[C@H]1O[C@@H]1O[C@H](C)C[C@H](N(C)C)[C@H]1O (stereo partly drawn) [Compound 127] | 4 to 32 µg/mL

Here is another compound to look at.
Enquiry: State the measured MIC (K. pneumoniae MP-648) of CO[C@]1(C)C[C@@H](C)CN(C)[C@H](C2CN(C(=O)CC(C)(C)CN(C)C)C2)COC(=O)C(C)(C)C(=O)[C@H](C)[C@H]1O[C@@H]1O[C@H](C)C[C@H](N(C)C)[C@H]1O [Compound 183]
Return: 4 to 32 µg/mL
